- Assay Remarks: NCI Yeast Anticancer Drug Screen. Data for the rad52 strain (AID 147);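 note: 0% = growth of vehicle-treated control cultures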
- Protocol Conditions: S. cerevisiae rad52 mutant growth inhibition; at 1.2 µM
This is part of a sample that, as a whole, favours compounds with a hit. Of some 79,000 tested, about 15% had one in any assay. Calls of active or inactive are those of the source. Cut-off read from the data, not from the text of the source: active = growth inhibition above about 70%; inactive = the rest.
Choose the fitting class; nothing outside active, inactive is accepted.

| Compound | Answer Label |
| --- | --- |
| CC1CCCN(CCc2ccccc2)CC1 (stereo not given) | inactive |
| Cc1cc[n+](C2=C(Nc3cccc(C(F)(F)F)c3)C(=O)c3ccccc3C2=O)cc1 | inactive |
| CCOC(=O)C1=C(C(=O)OCC)C2(c3ccccc3)N(O1)c1ccccc1C2(C)C (stereo not given) | inactive |
| COc1cc2ccccc2c2cc([N+](=O)[O-])oc12 | active |
| NCCc1ccc(OCc2ccccc2)c(OCc2ccccc2)c1 | inactive |
| CCNC(=O)OCC1C2=C(C(=O)C(C)=C(N)C2=O)N2CC3C(N3C)C12OC (stereo not given) | inactive |

Exercise: Dear colleague, could you share the recorded outcome for COc1cc(C2c3cc4c(cc3[C@@H](Nc3ccc(N)cc3)C3COC(=O)[C@H]23)OCO4)cc(OC)c1O (stereo not given in full) when you have a moment?
Solution: active

Exercise: Kindly provide the recorded test outcome for the following compound: CC[C@](O)(C(=O)O)c1cc2n(c(=O)c1CO)Cc1cc3ccccc3nc1-2
Solution: active

Exercise: Field: outcome | Entry: c1cc2c(cc1C1OC[C@H]3[C@@H](c4ccc5c(c4)OCO5)OC[C@@H]13)OCO2 (stereo not given in full)
Solution: inactive

Exercise: Call for entry Cc1cccc(NC(=O)CBr)c1 :
Solution: inactive

---

- Assay Remarks: NCI Yeast Anticancer Drug Screen. Data for the bub3 strain (AID 167)
- Protocol Conditions: S. cerevisiae bub3 mutant strain, at 50.0 µM (retest, dose inferred, filed as 5.0)
About 79,000 compounds went through this panel and 15% of them were active in at least one assay; those are over-represented in the sample as a whole. Activity calls are given as the source filed them. No stated cut-off is given here; in the data, active means growth inhibition above about 70%; inactive means the rest.
Choose one outcome from this list and give only that: active, inactive

Solved cases (6 shown):
| Compound | Answer Label |
| --- | --- |
| CCCN(CCC)c1c([N+](=O)[O-])cc(S(N)(=O)=O)cc1[N+](=O)[O-] | active |
| CC1CCC2(NC1)OC1CC3C4CCC5CC(OC6OC(CO)C(OC7OC(CO)C(O)C(OC8OCC(O)C(O)C8O)C7OC7OC(CO)C(O)C(O)C7O)C(O)C6O)CCC5(C)C4CCC3(C)C1C2C (configuration not stated) | active |
| CN(C)CC(Cl)CCl (configuration not stated) | inactive |
| O=S(=O)(O)/C(=C\c1ccccc1)c1ccccc1 (tested in a mixture with another compound) | active |
| CCN(CC)C1CC(O[C@H]2C[C@](O)(C(=O)CO)Cc3c(O)c4c(c(O)c32)C(=O)c2c(OC)cccc2C4=O)OC(C)C1O (some centres not stated) | active |
| Nc1nc(CCl)cs1 | inactive |

Moving on to another compound below.
Exercise: Please state the recorded outcome for this compound: COc1cc(/C=C/c2ccc(OC)c(OC)c2)cc(OC)c1
Solution: inactive

---

- Assay Remarks: NCI Yeast Anticancer Drug Screen. Data for the bub3 strain (AID 167)
- Protocol Conditions: S. cerevisiae bub3 mutant strain, at 5.0 µM (retest, dose inferred, filed as 0.5), active compounds read high
About 79,000 compounds went through this panel and 15% of them were active in at least one assay; those are over-represented in the sample as a whole.
Experimental Endpoint: growth inhibition (%)
Numbers only, in %.

Example entries and their recorded answers appear below.
| Compound | growth inhibition, % |
| --- | --- |
| N=P(c1ccccc1)(c1ccccc1)c1ccccc1.[O]=[Cr](=[O])([OH])[O][Cr](=[O])(=[O])[OH] | -4 |
| COC(=O)C1=C(C(=O)OC)[C]([Hg][CH3])(C(C)=O)N=N1 (centres undefined) | 99 |
| O=[N+]([O-])O.O=[N+]([O-])O.[NH-]C1CCCCC1[NH-].[Pt+2] (centres undefined) | 56 |

Give growth inhibition for each listed item.
1. COC1=CC2=CCC3C(CCC4(C)C3CCC4(C)OC(C)=O)C2(C)CC1 (centres undefined)
2. CC1CC(Br)C(=O)O1 (centres undefined)
3. Nc1nc(-c2ccccc2)c(-c2ccccc2)[se]1
4. COc1c(Br)cc(/C=C(/C)[N+](=O)[O-])cc1Br
5. Cn1cnc(N)c1C(=N)[Se]
6. CC(=O)C(CN(C)C)C(c1ccccc1)c1c(O)c2ccccc2oc1=O (centres undefined)
7. C1CC[CH]([Sn]([CH]2CCCCC2)[CH]2CCCCC2)CC1.C1CC[CH]([Sn]([CH]2CCCCC2)[CH]2CCCCC2)CC1

Solution:
1: -12; 2: 44; 3: 3; 4: 46; 5: -67; 6: 13; 7: 3

Fill in growth inhibition for each of the 3 compounds listed.
1. CC(C)C1(NC(=O)C2C=C3c4cccc5[nH]cc(c45)CC3N(C)C2)OC2(O)C3CCCN3C(=O)C(Cc3ccccc3)N2C1=O (centres undefined) (tested in a mixture with another compound)
2. N#C[SH2+].N#C[SH2+].N#C[SH2+].N#C[SH2+].[Cu+2].c1ccc(C[P+](c2ccccc2)(c2ccccc2)c2ccccc2)cc1
3. COC1CC(CC2CCC(C)C(C(C)C(=O)O)O2)OC2(OC(C)(C3CCC(C)(C4OC(C5OC(O)(CO)C(C)CC5C)CC4C)O3)CC2C)C1C (centres undefined)

Solution:
[7, 5, 3]

Parameter requested: growth inhibition. Apply to each item below.
1. CC(=O)[O][Hg][c]1c(C)c(C)c(C)c(C)c1C
2. CCC1(C2=CCCCC2)C(=O)NC(=S)NC1=O

Solution:
[98, 4]

Field: growth inhibition. Fill in for each record below.
1. CCCCCCCCCCCCCCCCCC(=O)[O][Hg][c]1ccccc1
2. Cc1cc(C)c(O)c(C)c1.[Hg]
3. Cc1ccc(NP(=O)(Oc2ccccc2)N(CCCl)CCCl)cc1 (centres undefined)
4. Nc1ncc(CCCCc2ccc(NC(=O)Nc3ccc(S(=O)(=O)F)cc3)cc2)c(N)n1
5. c1ccc(N=c2nc(N3CCOCC3)ss2)cc1
6. CCc1cc2c(cc1O)C(C)(C)CCC2(C)C
7. [Br][Ni][Br].c1ccc(CN2CCN(Cc3ccccc3)CCN(Cc3ccccc3)CCN(Cc3ccccc3)CC2)cc1
8. O=[N+]([O-])c1cc([N+](=O)[O-])c(Cl)cc1F

Solution:
1. 99
2. 98
3. 14
4. -4
5. 8
6. 3
7. 3
8. 99

---

For each of the molecules below, state its growth inhibition.
- Assay Remarks: NCI Yeast Anticancer Drug Screen. Data for the cln2 rad14 strain (AID 165);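 note: 0% = growth equal to vehicle treated cultures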
- Protocol Conditions: S. cerevisiae cln2 rad14 strain, at 50.0 µM, active compounds read high
This is part of a sample that, as a whole, favours compounds with a hit. Of some 79,000 tested, about 15% had one in any assay.
Answers are plain numbers, in %.

| Molecule | growth inhibition / % |
| --- | --- |
| N.N.N.N.N.N#N.[Cl-].[Os+7] | 57.4 |
| CCC[CH2][Sn]([Cl])([Cl])[CH2]CCC | 98.7 |
| CCOP(=S)(S)OCC.[Pd] | 76.5 |
| CCCCCCCCCCCCN=C(N)N | 98.5 |
| Cc1cc(-c2ccccc2)cc(C)[n+]1[O-] | -31.3 |

I need growth inhibition for every entry listed below, if you could help.
1. CCC1(O)C(=O)OCc2c1cc1n(c2=O)Cc2cc3ccc(C#N)cc3nc2-1 (stereo unspecified)
2. CC(=O)O.[Au].c1ccc([PH+](c2ccccc2)c2ccccc2)cc1

Solution:
[-16.7, 98]

Required: growth inhibition, one value per molecule below.
1. CCC[CH2][Pb]([Cl])([CH2]CCC)[CH2]CCC
2. Cc1ccc(C(=O)CCl)o1

Solution:
1. 91.2
2. 71.4

---

Please respond with reported growth inhibition for every item in the list.
- Assay Remarks: NCI Yeast Anticancer Drug Screen. Data for the rad50 strain (AID 155);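 note: 0% = growth of vehicle-only cultures of the same strain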
- Protocol Conditions: S. cerevisiae rad50 strain growth inhibition; at 50.0 µM (retest, dose inferred, filed as 5.0); active compounds read high
The panel holds about 79,000 compounds, 15% with a hit somewhere; the sample as a whole holds those more often.
Numbers only, in %.

| Molecule | growth inhibition [%] |
| --- | --- |
| CN(CCO)CCO | 86 |
| O=C(O)C1C2c3ccccc3C(c3ccccc32)C1Br (centres undefined) | 3 |
| Nc1nnc(N)n1-n1c(N)nnc1N | 92 |
| CC(C)c1cccc(C(C)C)c1NC(=O)C(=O)CC(=O)CC(c1ccccc1)c1c(O)c2ccccc2oc1=O (centres undefined) | 8 |
| O=[N+]([O-])c1cc([N+](=O)[O-])c2cccnc2c1O | 3 |
| c1ccc2c(c1)c1cccc3c4c5ccccc5c5cccc(c2c13)c54 | -1 |
| CC(C)(c1ccccc1)c1ccc(O)cc1 | 58 |
| c1cc[c]([Pb]([c]2ccccc2)[c]2ccccc2)cc1.c1cc[c]([Pb]([c]2ccccc2)[c]2ccccc2)cc1 | 98 |
| [N-]=[N+]=NS(=O)(=O)c1cccc([N+](=O)[O-])c1 | 100 |
| CC12CCC(O)CC1CCC1C2CCC2(C)C(C(=O)CC(O)C(F)(F)F)CCC12 (centres undefined) | 62 |

Please state, for each entry, its recorded growth inhibition.
1. N#Cc1ccc([Se]c2ccccc2)cc1
2. O=[As]c1ccc(Cl)cc1Cl (centres undefined)
3. O=C(c1ccc(Br)cc1)C1C(c2ccccc2)N1C1CCCCC1 (centres undefined)
4. CC12CCC3C(CCC4CC(N5CCCCC5)=CCC43C)C1CCC2O (centres undefined)
5. COC1(OC)C(Cl)=C(Cl)C(Cl)=C1Cl
6. Cc1c(N)nc([C@H](CC(N)=O)NC[C@H](N)C(N)=O)nc1C(=O)N[C@H](C(=O)N[C@H](C)[C@@H](O)[C@H](C)C(=O)N[C@H](C(=O)NCCc1nc(-c2nc(C(=O)NCCC[S+](C)C)cs2)cs1)[C@@H](C)O)C(OC1OC(CO)C(O)C(O)C1OC1OC(CO)C(O)C(OC(N)=O)C1O)c1cnc[nH]1 (some centres undefined)
7. COC(=O)C1=C(C)NC(=S)NC1c1ccc(N(CCCl)CCCl)cc1Cl (centres undefined)
8. c1ccc(C[As+](c2ccccc2)(c2ccccc2)c2ccccc2)cc1

Solution:
96
99
79
98
95
99
94
92

Exercise: # lookup: growth inhibition of O=C(O)c1cc([N+](=O)[O-])c(Cl)c([N+](=O)[O-])c1Cl
Solution: 99
